# assayExplanation: CHI Log D procedure
# Format: physicochemical
# assaySetup: pH 7.4
quantityName: CHI Log D
Answer using only a numeral; do not append any unit.

Form field CHI Log D, entry CC(=O)N1CCC[C@]12CC=CCCCC1(CCCC=CCCCCCC[C@@](C)(C(=O)N[C@@H](Cc3ccccc3)C(=O)N[C@@H](Cc3csc4ccccc34)C(=O)NC(Cc3cncn3C)C(N)=O)NC(=O)[C@H](CC(N)=O)NC(=O)[C@H](Cc3ccccc3)NC(=O)[C@H](C)NC(=O)[C@H](C)NC(=O)[C@H](CCC(=O)O)NC(=O)[C@H](CC(=O)O)NC1=O)NC(=O)[C@H](C)NC(=O)[C@H](CC(=O)O)NC2=O (single isomer, unassigned) : 2.133

Documented CHI Log D of CC(=O)N[C@@H](Cc1ccccc1)C(=O)N[C@@H](CC(=O)O)C(=O)N[C@@H](C)C(=O)N[C@]1(C)CCCCCCC=CCOC(=O)N2CC[C@@](C(=O)N[C@@H](Cc3c(F)c(F)c(F)c(F)c3F)C(=O)N[C@@H](Cc3c[nH]c4ccccc34)C(=O)N[C@@H](CCC(N)=O)C(N)=O)(C2)NC(=O)[C@H](C(C)C)NC(=O)[C@H](Cc2ccccc2)NC(=O)[C@H](C)NC(=O)[C@H](C)NC(=O)[C@H](CC(=O)O)NC(=O)[C@H](CC(=O)O)NC1=O [I-228] : 1.534

Reported CHI Log D ( CC(=O)N1CCC[C@]12CC=CCCCC1(CCCC=CCCCCCC[C@@](C)(C(=O)N[C@@H](Cc3ccsc3)C(=O)N[C@@H](Cc3csc4ccccc34)C(=O)N[C@@H](Cc3c[nH]cn3)C(N)=O)NC(=O)[C@H](CC(N)=O)NC(=O)[C@H](Cc3ccccc3)NC(=O)[C@H](C)NC(=O)[C@H](C)NC(=O)[C@H](CCC(=O)O)NC(=O)[C@H](CC(=O)O)NC1=O)NC(=O)[C@H](C)NC(=O)[C@H](CC(=O)O)NC2=O (some centres unmarked) [I-515] ) = 2.028

So for CC(=O)N1CCC[C@]12CC=CCCCC1(CCCC=CCCCOC(=O)N3CC[C@@](C(=O)N[C@@H](Cc4ccsc4)C(=O)N[C@@H](Cc4csc5ccccc45)C(=O)N[C@@H](CO)C(N)=O)(C3)NC(=O)[C@H](Cc3ccccc3)NC(=O)[C@H](Cc3ccccc3)NC(=O)[C@H](C)NC(=O)[C@H](C)NC(=O)[C@H](CN(CC(=O)O)CC(F)(F)F)NC(=O)[C@H](CC(=O)O)NC1=O)NC(=O)[C@H](CC(C)(C)C)NC(=O)[C@H](CC(=O)O)NC2=O (some centres unmarked) [I-962] , the logged CHI Log D turned out to be 2.046

Value of CHI Log D reported for the molecule CC(=O)N1CCC[C@]12CC=CCCCC1(CCCC=CCCCCCC[C@@](C)(C(=O)N[C@@H](Cc3ccccc3Cl)C(=O)N[C@@H](Cc3csc4ccccc34)C(=O)N[C@@H](CCC(N)=O)C(N)=O)NC(=O)[C@H]([C@@H](C)O)NC(=O)[C@H](Cc3ccccc3)NC(=O)[C@H](C)NC(=O)[C@H](C)NC(=O)[C@H](CCC(=O)O)NC(=O)[C@H](CC(=O)O)NC1=O)NC(=O)[C@H](CC(C)(C)C)NC(=O)[C@H](CC(=O)O)NC2=O (some centres unmarked) [I-1089] is 2.826
